- assayProtocol: chemical genetic growth profiling, strain panel (AID 1159580);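 further: tested at 20 µM; growth read once vehicle control cultures reached saturation at 30 °C; 1 = growth at the plate median or of vehicle wells; lower values mean less growth of the strain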
- assayConditions: S. cerevisiae deletion strains, growth OD, locus YHR030C, strain SLT2, stronger effect = lower value
Out of some 5,500 compounds screened, about 2,000 (36%) were called active. Another 18% or so got no clear call; they are omitted. Some of the results follow.
quantity: normalized growth

[[record]]
compound = "CCCOc1ccccc1-c1nc2n[nH]nc2c(=O)[nH]1"
quantity = "normalized growth"
valuemeasured = 1

[[record]]
compound = "S=c1[nH]nc(SCCSc2n[nH]c(=S)s2)s1"
quantity = "normalized growth"
valuemeasured = 1.1

[[record]]
compound = "O=C(NCCc1ccncc1)c1ccc(Cl)c(Cl)c1"
quantity = "normalized growth"
valuemeasured = 0.911

[[record]]
compound = "COC(=O)Nc1nc2ccc(S(=O)c3ccccc3)cc2[nH]1 (centres undefined)"
quantity = "normalized growth"
valuemeasured = 1.03

